Provenance of the data: ChEMBL document CHEMBL1201862

The molecules below have reported IC50 for Estrogen receptor beta (Homo sapiens).
The source made the active and inactive calls.

molecule	IC50
Oc1c(Cl)cc(Cl)cc1Sc1cc(Cl)cc(Cl)c1O	8.15 µM (active)
O=C(Nc1sc2c(c1C(=O)O)CCC2)c1ccccc1	6.88 µM (active)
Nc1nonc1NC(=O)CSc1ncccc1C(=O)O	> 50 µM (not active)
O=C(CSc1nc(O)c2ccccc2n1)c1ccc(O)c(O)c1	4.62 µM (active)
CSCCOC(=O)c1[nH]c2c(c1C)C(=O)CC(c1ccco1)C2 (stereo unspecified)	> 50 µM (not active)

Exercise: # get_value(readout= IC50, system= Estrogen receptor beta (Homo sapiens)) for `O=C(Nc1nccs1)c1ccc2nccnc2c1`;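 note: recombinant ER-beta bound to coactivator SRC1 peptide in presence of estradiol agonist; inhibitors block coactivator peptide binding and lower the FRET signal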
Solution: 14.9 µM (active)

====

# target-system: Streptokinase A (Streptococcus pyogenes serotype M1, UniProt P10520)
# Sequence (P10520 whole entry): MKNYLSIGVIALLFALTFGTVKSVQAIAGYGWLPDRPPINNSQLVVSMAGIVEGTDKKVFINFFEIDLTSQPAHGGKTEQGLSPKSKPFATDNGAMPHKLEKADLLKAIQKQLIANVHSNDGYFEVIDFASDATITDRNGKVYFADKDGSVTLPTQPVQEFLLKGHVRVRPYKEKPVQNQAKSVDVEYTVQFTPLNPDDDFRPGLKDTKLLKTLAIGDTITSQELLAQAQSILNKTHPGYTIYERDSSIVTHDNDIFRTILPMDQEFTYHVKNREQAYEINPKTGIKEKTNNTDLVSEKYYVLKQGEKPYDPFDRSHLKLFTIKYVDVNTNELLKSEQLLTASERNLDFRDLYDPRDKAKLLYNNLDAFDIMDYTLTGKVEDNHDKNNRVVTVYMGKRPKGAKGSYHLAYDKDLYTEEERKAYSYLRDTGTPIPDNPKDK
# procedure-details: S. pyogenes streptokinase expression inhibitors, potency, dose response, plasminogen activation absorbance, OD405 (AID 1914);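 note: secreted streptokinase activity via plasminogen activation per viability signal from cell pellet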
# Format: functional, Streptococcus pyogenes M1 GAS
Active and inactive are the calls of the source.
The compounds listed here are annotated with their EC50.

Would you please look over these solved cases?
compound	EC50
COc1cccc(/C=C(/C(=O)OCC(=O)NC2CCCC(C)C2C)c2ccccc2)c1 (stereo not drawn)	6.84 µM (active)
CC1CCN(c2nc(N3CCCCC3)nc(N3CCCCC3)n2)CC1	33.2 µM (active)
CCC(=O)Nc1nc2ccccc2n1Cc1ccccc1C	> 150 µM (not active)
COC(=O)[C@@H]1[C@@H](C#N)C2(c3ccccc3-c3ccccc32)N(c2ccc(Cl)cc2)N1C#N	63.1 µM (active)
O=C(O)c1ccc(N2CCCCS2(=O)=O)cc1	> 150 µM (not active)
O=C(NC(Cc1c[nH]c2ccccc12)C(=O)N/N=C/c1cccc2ccccc12)c1cccs1 (stereo not drawn)	> 150 µM (not active)
c1csc(-c2csc3nc(CN4CCOCC4)nc(NCc4ccc5c(c4)OCO5)c23)c1	59.9 µM (active)
CC1C/C(=N\NC(=S)NCc2ccccc2)CC(C)(C)C1 (stereo not drawn)	> 150 µM (not active)

Exercise: What does the data say about its EC50? Entry: `Cc1ccc(C(=O)NC2CCCC2)s1`
Solution: > 150 µM (not active)

====

The molecules listed here are annotated with their AC50.
# target-system: Paired box protein Pax-8 (Homo sapiens, UniProt Q06710)
# Sequence (Q06710 whole entry): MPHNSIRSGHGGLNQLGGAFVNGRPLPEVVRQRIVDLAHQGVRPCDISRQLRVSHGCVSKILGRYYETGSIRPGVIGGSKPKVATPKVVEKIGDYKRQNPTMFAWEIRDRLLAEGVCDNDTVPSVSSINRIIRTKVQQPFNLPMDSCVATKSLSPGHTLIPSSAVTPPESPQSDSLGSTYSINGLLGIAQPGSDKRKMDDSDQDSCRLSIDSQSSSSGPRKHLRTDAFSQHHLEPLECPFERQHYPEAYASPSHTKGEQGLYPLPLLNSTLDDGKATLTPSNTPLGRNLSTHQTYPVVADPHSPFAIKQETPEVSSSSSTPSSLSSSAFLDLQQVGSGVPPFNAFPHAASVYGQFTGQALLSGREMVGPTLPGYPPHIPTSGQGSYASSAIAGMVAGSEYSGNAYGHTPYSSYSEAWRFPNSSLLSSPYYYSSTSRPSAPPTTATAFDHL
# procedure-details: inhibitors of PAX8-driven TPO luciferase reporter, dose response, RMG-I cells, cherry-pick (AID 687027);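 note: luciferase reporter driven by Pax8 target thyroperoxidase promoter measured by SteadyGlo luminescence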
# Format: functional, cell-based
The source made the active and inactive calls.

molecule	readout-name	experimental-result
COc1ccc(-c2ccc([C@@H]3[C@@H]4CN(Cc5cc(OC)cc(OC)c5)C[C@H]3N4)cc2)cc1	AC50	10.1 µM (active)
C=CCOc1ccccc1CN(C(=O)CCl)c1ccc2c(c1)OCO2	AC50	5.46 µM (active)
COc1cc2c(c(OC)c1OC)-c1ccc(O)cc1[C@@H](NC(C)=O)CC2 [N-ACETYLCOLCHINOL]	AC50	0.37 µM (active)
C[C@H]1CCCCO[C@H](CN(C)Cc2ccc(Cl)c(Cl)c2)[C@@H](C)CN([C@@H](C)CO)C(=O)c2cc(NC(=O)Nc3ccc(F)cc3)ccc2O1	AC50	25.9 µM (active)
COc1ccc(S(=O)(=O)Nc2ccc3c(c2)CC(=O)N([C@H](C)CO)C[C@H](C)[C@@H](CN(C)Cc2ccc(-c4ccccc4)cc2)O3)cc1	AC50	9.41 µM (active)

Exercise: What does the data say about its AC50? Entry: `O=C(Nc1ccc(C(F)(F)F)cc1)N1C[C@@H]2N[C@H](C1)[C@H]2c1ccc(-c2cccc(F)c2)cc1`
Solution: 13.2 µM (active)

Exercise: What does the data say about its AC50? Entry: `O=C(C[C@@H]1C[C@@H]2c3cc(NS(=O)(=O)c4ccc(F)cc4)ccc3O[C@@H]2[C@@H](CO)O1)NCc1ccc(-c2ccccc2)cc1`
Solution: 4.41 µM (active)

Exercise: What does the data say about its AC50? Entry: CCOC(=O)c1c(-c2ccc(F)cc2)csc1NC(=O)CN1C(=O)NC2(CCCCC2C)C1=O (stereo not drawn)
Solution: 4.11 µM (active)

Exercise: What does the data say about its AC50? Entry: `C[C@@H]1CN([C@H](C)CO)C(=O)c2cc(NC(=O)Nc3ccc(F)cc3)ccc2O[C@@H](C)CCCCO[C@H]1CN(C)C(=O)Nc1ccc(C(F)(F)F)cc1`
Solution: 5.23 µM (active)

Exercise: What does the data say about its AC50? Entry: `C[C@@H]1CCCCO[C@H](CN(C)C)[C@H](C)CN([C@H](C)CO)C(=O)c2cc(NC(=O)Nc3cccc4ccccc34)ccc2O1`
Solution: 33.5 µM (active)

Exercise: What does the data say about its AC50? Entry: `CNc1ccc(Br)cc(C(=O)/C=C/c2cc(OC)ccc2OC)c1=O`
Solution: 7.83 µM (active)

Exercise: What does the data say about its AC50? Entry: `CC(C)NC(=O)N1Cc2cc(C(=O)NCC(F)(F)F)nc(-c3cccc(-c4cc5ccccc5o4)c3)c2[C@H]1CCO`
Solution: 7.2 µM (active)

Exercise: What does the data say about its AC50? Entry: `C[C@H](CO)N1C[C@H](C)[C@@H](CN(C)S(=O)(=O)c2ccc(Cl)cc2)OCCCC[C@H](C)Oc2ccc(NS(=O)(=O)c3ccc(F)cc3)cc2C1=O`
Solution: 4.45 µM (active)
